Parameter: IC50. Scope: all listed entries.
- subject-of-test: UniProt:P14555
- Sequence (P14555 whole entry): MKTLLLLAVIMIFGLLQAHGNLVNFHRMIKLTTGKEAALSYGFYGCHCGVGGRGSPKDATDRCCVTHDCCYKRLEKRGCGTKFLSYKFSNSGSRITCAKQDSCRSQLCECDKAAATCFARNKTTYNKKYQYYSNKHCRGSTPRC
- run-description: Inhibition of Human Nonpancreatic Secretory Phospholipase A2 through Chromogenic assay
measured-quantity: IC50 (µM)

1) Cc1c(CC(=O)NN)c2ccccc2n1-c1ccccc1 = 38.2
2) COc1cccc2c1c(CC(N)=O)c(C)n2Cc1cccc(Cl)c1 = 1.38
3) CCc1c(CC(N)=O)c2c(OC)cccc2n1Cc1ccccc1 = 1.18
4) COc1ccc2c(c1)c(CC(=O)NN)c(C)n2Cc1cccc(N)c1 = 4.32
5) CCCCCCCCCCn1c(C)c(CC(=O)NN)c2cc(OC)ccc21 = 9.43
6) COc1ccc2c(C(=O)C(N)=O)c(C)n(Cc3ccccc3)c2c1 = 1.77
7) COc1ccc2c(c1)c(CC(=O)NN)c(C)n2C(c1ccccc1)c1ccccc1 = 40.2
8) COc1ccc2c(C(O)C(N)=O)c(C)n(Cc3ccccc3)c2c1 (stereo not drawn) = 121
9) COc1cccc(Cn2c(C)c(CC(=O)NN)c3cc(OC)ccc32)c1 = 2.12
10) COc1ccc2c(c1)c(CC(=O)NN)c(C)n2Cc1cccc(Cl)c1 = 1.36
11) COc1cccc2c1c(CC(=O)NN)c(C)n2Cc1cccc(Cl)c1 = 0.23
12) COc1ccc2c(c1)c(CC(=O)O)c(C)n2Cc1ccccc1 = 13.6
13) CONC(=O)Cc1c(C)n(Cc2ccccc2)c2ccc(OC)cc12 = 40
14) CNC(=O)Cc1c(C)n(Cc2ccccc2)c2ccc(OC)cc12 = 142
15) COc1ccc2c(c1)c(CC(N)=O)c(C)n2CCCc1ccccc1 = 11.1
16) CCC(C(=O)NN)c1c(C)n(Cc2ccccc2)c2ccc(OC)cc12 (stereo not drawn) = 24.2
17) COc1ccc2c(c1)c(Cc1nnn[nH]1)c(C)n2Cc1ccccc1 = 84.7
18) COc1ccc2c(c1)c(CC(=O)NN)cn2Cc1ccccc1 = 4.9
19) COc1ccc2c(c1)c(CC(N)=O)c(SC)n2Cc1ccccc1 = 0.45
20) COc1ccc2c(c1)c(CC(N)=O)c(C)n2Cc1cccc(Cl)c1 = 0.91
21) COc1ccc2c(c1)c(CC(N)=O)c(C)n2C(=O)c1ccccc1 = 7.21
22) COc1ccc2c(c1)c(C(O)C(N)=O)c(C)n2Cc1ccccc1 (stereo not drawn) = 20.1
23) CCc1c(C(=O)C(N)=O)c2c(OC)cccc2n1Cc1ccccc1 = 0.55
